Target: HLA-B*53:01
Assay: IEDB peptide-MHC binding, purified MHC/competitive/radioactivity; filed as Kd, often an IC50 or EC50 that approximates it; bounds were set here for any values at or beyond the usual limits of such assays
Conditions: source organism: Vaccinia virus WR
readout: pKd
Please keep in mind that pKd is minus log10 of the molar concentration; only the number is needed.

SPPIPMSRL ... 5.03
DPTFQLLNM ... 6.63

Turning now to a further record.
# value lookup — system HLA-B*53:01, readout pKd, item SPPLISILMI
5.65

====

Target: HLA-A*02:01
Experiment: IEDB peptide-MHC binding, purified MHC/competitive/fluorescence; filed as Kd, often an IC50 or EC50 that approximates it; bounds were set here for any values at or beyond the usual limits of such assays
Details: source organism: Homo sapiens
readout: Kd

For the sequence shown here, FAAPHRGVA , give the reported Kd.
≥ 20 µM

Source: the Immune Epitope Database (IEDB)
